Reference source for all entries: patent US20160297884A1

The binders listed here are annotated with their koff.
# Study target: BCMA (analyte of Table 4A)
# Sequence (Q02223 whole entry): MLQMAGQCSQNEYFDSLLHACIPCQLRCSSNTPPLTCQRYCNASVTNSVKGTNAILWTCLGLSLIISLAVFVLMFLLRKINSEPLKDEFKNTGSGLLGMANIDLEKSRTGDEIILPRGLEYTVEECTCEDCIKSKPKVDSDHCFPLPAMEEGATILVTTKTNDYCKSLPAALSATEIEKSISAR
# Assay info: SPR (Bio-Rad ProteOn XPR36), IgG amine-coupled, BCMA as analyte, kinetic titration; species of BCMA and temperature not stated for Table 4A
Don't forget the unit after the value.

Here is how some binders turned out for koff.
What value of koff has been recorded for this entry: COMBO_Rd4_0.6nM_C29 (antibody, V domains shown, Tested as IgG) VH: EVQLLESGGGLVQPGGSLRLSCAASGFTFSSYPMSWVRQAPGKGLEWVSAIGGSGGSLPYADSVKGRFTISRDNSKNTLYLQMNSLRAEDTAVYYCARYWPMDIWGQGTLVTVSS VL: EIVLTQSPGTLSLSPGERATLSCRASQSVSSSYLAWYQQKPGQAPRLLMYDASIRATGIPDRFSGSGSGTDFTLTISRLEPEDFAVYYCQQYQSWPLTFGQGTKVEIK 0.00014 s⁻¹

What value of koff has been recorded for this entry: L3.PY/H3.TAQ (antibody, V domains shown, Tested as IgG) VH: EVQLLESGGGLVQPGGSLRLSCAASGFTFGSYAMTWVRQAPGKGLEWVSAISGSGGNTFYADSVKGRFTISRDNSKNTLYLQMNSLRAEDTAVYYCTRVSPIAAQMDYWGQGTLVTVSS VL: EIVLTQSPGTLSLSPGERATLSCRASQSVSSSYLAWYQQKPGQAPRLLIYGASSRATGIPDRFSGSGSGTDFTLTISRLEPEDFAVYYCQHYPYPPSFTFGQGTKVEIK 0.00014 s⁻¹

Next item in the queue.
What value of koff has been recorded for this entry: A02_Rd4_6nM_C16 (antibody, V domains shown, Tested as IgG; also called P5AC16) VH: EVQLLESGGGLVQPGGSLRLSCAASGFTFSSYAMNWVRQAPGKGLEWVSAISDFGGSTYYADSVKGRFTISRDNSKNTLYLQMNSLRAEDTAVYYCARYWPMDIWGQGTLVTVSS VL: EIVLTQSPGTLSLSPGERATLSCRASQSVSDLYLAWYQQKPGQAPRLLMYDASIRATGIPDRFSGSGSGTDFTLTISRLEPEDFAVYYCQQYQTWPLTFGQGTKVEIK 6.2e-05 s⁻¹
